B1: RSPH3 (parent)
chain: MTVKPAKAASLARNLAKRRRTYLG

Variants of: B1
METHOD_SUMMARY: protein stability index of a GFP-peptide fusion (GPS, HEK-293T) (PSI 1-6); higher = more stable;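 note: lentivirally expressed fusions sorted by FACS into six bins by GFP to DsRed ratio, PSI derived from sequencing read proportions per bin multiplied by bin number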
CONDITION_INFO: c terminus: a fixed tail appended
Binary classification by protein stability index, with 3 as an inclusive lower bound for 1.0; all other cases are 0.0.

>>> cat("N14I")
0.0
>>> cat("Y22K")
1.0
>>> cat("G24T")
1.0
>>> cat("L15P")
1.0
>>> cat("L23R")
1.0
>>> cat("R13Q")
1.0
>>> cat("N14P")
0.0
>>> cat("T2H")
1.0
>>> cat("M1Y")
0.0
>>> cat("L11T")
1.0
>>> cat("V3N")
1.0
>>> cat("K17Y")
0.0
>>> cat("K7N")
1.0
>>> cat("L11K")
1.0
>>> cat("G24L")
0.0
>>> cat("R13C")
1.0
>>> cat("A8H")
0.0
